// data source = the NIST ThermoML archive (doi:10.1016/j.jct.2016.09.022)

conditions: 323.15 K; 5100 kPa; Liquid; Frequency=1.5 MHz; Single path-length method
endpoint: speed of sound (m/s)
Answers are plain numbers, in m/s.

Record excerpt, results attached:
entry-smiles	speed of sound, m/s
CCCCCCC	1068.6
CCCCCCCC	1110.4
Cc1ccccc1	1229.2
CCCO	1153.8
CO	1055.8

Please give speed of sound, item by item, for the list that follows.
1. O
2. CCCCCC
3. CCO

1551.5
1013.6
1094.5

---

conditions: 323.15 K; 50100 kPa; Liquid; Frequency=1.5 MHz; Single path-length method
Give speed of sound for every item shown.
Answers are plain numbers, in m/s.

Record excerpt, results attached:
entry-smiles	unit-spec	speed of sound
CCCO	m/s	1384.6
Cc1ccccc1	m/s	1436.9
CO	m/s	1286.3
CCCCCC	m/s	1311
O	m/s	1629
CCCCCCCC	m/s	1375.2
CCO	m/s	1332.4

Moving on to the next molecule.
Which speed of sound value belongs to "CCCCCCC" ?
1346.7

---

Give speed of sound for every item shown.
conditions: 293.15 K; 10100 kPa; Liquid; Frequency=1.5 MHz; Single path-length method
Give bare numbers, in m/s.

Record excerpt, results attached:
entry-smiles	endpoint	test-value
CCCCCCC	speed of sound	1223.4
O	speed of sound	1498.9
CCCO	speed of sound	1279.6

Please give speed of sound, item by item, for the list that follows.
1. Cc1ccccc1
2. CCCCCCCC
3. CCO
4. CCCCCC
5. CO

1. 1376
2. 1259.5
3. 1222.5
4. 1177.2
5. 1176.2

---

Give speed of sound for every item shown.
settings: 333.15 K; 60100 kPa; Liquid; Frequency=1.5 MHz; Single path-length method
Answers are plain numbers, in m/s.

entry-smiles	speed of sound, m/s
Cc1ccccc1	1441.4
O	1656.3
CCCCCCCC	1393.9
CCO	1351.2
CCCCCCC	1366.6
CCCO	1402.2
CCCCCC	1331.7

Moving on to the next compound.
Which speed of sound value belongs to "CO" ?
1304.8

---

details: 303.15 K; 50100 kPa; Liquid; Frequency=1.5 MHz; Single path-length method
endpoint: speed of sound (m/s)
Numbers only, in m/s.

entry-smiles	test-value
CCCCCCC	1408.5
CCO	1384.2

Please give speed of sound, item by item, for the list that follows.
1. CCCO
2. O
3. CO
4. Cc1ccccc1

1: 1436.6; 2: 1593.1; 3: 1333.7; 4: 1503.3

Please give speed of sound, item by item, for the list that follows.
1. CCCCCCCC
2. CCCCCC

1435.5
1373.7

---

Give speed of sound for every item shown.
settings: 293.15 K; 20100 kPa; Liquid; Frequency=1.5 MHz; Single path-length method
± gives the expanded uncertainty stated by the source.

Please give speed of sound, item by item, for the list that follows.
1. CCCCCCC
2. CCCCCCCC

1: 1284.8 ± 3 m/s; 2: 1317.2 ± 2.9 m/s

Please give speed of sound, item by item, for the list that follows.
1. CCO
2. CCCCCC
3. CCCO
4. CO
5. Cc1ccccc1
6. O

1: 1275.6 ± 2.8 m/s; 2: 1243.4 ± 3 m/s; 3: 1330 ± 2.9 m/s; 4: 1227.4 ± 2.6 m/s; 5: 1420.5 ± 3 m/s; 6: 1515.3 ± 3.1 m/s

---

conditions: 333.15 K; 70100 kPa; Liquid; Frequency=1.5 MHz; Single path-length method
endpoint: speed of sound (m/s)
Answers are plain numbers, in m/s.

compound	unit-spec	speed of sound
O [water]	m/s	1673.1
CCCO [propan-1-ol]	m/s	1441.9
CCCCCCCC [octane]	m/s	1438.5
CO [methanol]	m/s	1343.6
CCCCCCC [heptane]	m/s	1412.9
CCO [ethanol]	m/s	1391.9

Please give speed of sound, item by item, for the list that follows.
1. CCCCCC [hexane]
2. Cc1ccccc1 [toluene]

1: 1380.5; 2: 1478.2

---

details: 293.15 K; 40100 kPa; Liquid; Frequency=1.5 MHz; Single path-length method
± gives the expanded uncertainty stated by the source.
endpoint: speed of sound

entry-smiles	test-value
CCCCCCCC	1419.6 ± 3 m/s
O	1548.6 ± 3.1 m/s
CCO	1368.7 ± 2.9 m/s
CCCCCCC	1391.5 ± 3.1 m/s
CO	1316.8 ± 2.8 m/s

Please give speed of sound, item by item, for the list that follows.
1. CCCO
2. CCCCCC
3. Cc1ccccc1

1: 1420.8 ± 3 m/s; 2: 1356 ± 3.1 m/s; 3: 1500.9 ± 3.1 m/s

---

conditions: 303.15 K; 90100 kPa; Liquid; Frequency=1.5 MHz; Single path-length method
endpoint: speed of sound (m/s)
One number for each entry, in m/s.

Record excerpt, results attached:
entry-smiles	unit-spec	test-value
CCCCCCCC	m/s	1598.9
CCCCCC	m/s	1548
Cc1ccccc1	m/s	1638.2
CCCO	m/s	1583.6
CO	m/s	1477.7

Please give speed of sound, item by item, for the list that follows.
1. O
2. CCO
3. CCCCCCC

[1659, 1532.5, 1577]

---

conditions: 283.15 K; 60100 kPa; Liquid; Frequency=1.5 MHz; Single path-length method
Give speed of sound for every item shown.
Numbers only, in m/s.

entry-smiles	endpoint	test-value
CO	speed of sound	1421
CCCCCCCC	speed of sound	1539.8
O	speed of sound	1548

Please give speed of sound, item by item, for the list that follows.
1. Cc1ccccc1
2. CCCO
3. CCCCCC
4. CCCCCCC

1608.1
1527.4
1484.8
1515.6

Which speed of sound value belongs to "CCO" ?
1476.1

---

details: 343.15 K; 30100 kPa; Liquid; Frequency=1.5 MHz; Single path-length method
endpoint: speed of sound (m/s)
One number for each entry, in m/s.

Record excerpt, results attached:
compound	speed of sound (m/s)
CCCCCC [hexane]	1131.3
CO [methanol]	1144.9
CCCCCCC [heptane]	1174.6
CCCCCCCC [octane]	1208.7

Please give speed of sound, item by item, for the list that follows.
1. CCO [ethanol]
2. CCCO [propan-1-ol]
3. O [water]
4. Cc1ccccc1 [toluene]

1. 1185.8
2. 1239.2
3. 1610.8
4. 1283.9

---

details: 323.15 K; 95100 kPa; Liquid; Frequency=1.5 MHz; Single path-length method
Give speed of sound for every item shown.
One number for each entry, in m/s.

Record excerpt, results attached:
compound	test-value
CCCCCCCC [octane]	1564.5
CCCCCC [hexane]	1512.6
CCO [ethanol]	1504.5
CO [methanol]	1452.3
O [water]	1702.9

Please give speed of sound, item by item, for the list that follows.
1. Cc1ccccc1 [toluene]
2. CCCCCCC [heptane]
3. CCCO [propan-1-ol]

1: 1591.2; 2: 1542.2; 3: 1554.4

---

settings: 343.15 K; 20100 kPa; Liquid; Frequency=1.5 MHz; Single path-length method
Give speed of sound for every item shown.
Numbers only, in m/s.

Record excerpt, results attached:
molecule	endpoint	test-value
Cc1ccccc1 [toluene]	speed of sound	1234.3
CCCCCCCC [octane]	speed of sound	1145
CCCO [propan-1-ol]	speed of sound	1183.9
CCCCCC [hexane]	speed of sound	1060.6
CO [methanol]	speed of sound	1090.6

Please give speed of sound, item by item, for the list that follows.
1. CCO [ethanol]
2. O [water]
3. CCCCCCC [heptane]

1: 1129; 2: 1592.8; 3: 1108.4

---

details: 343.15 K; 50100 kPa; Liquid; Frequency=1.5 MHz; Single path-length method
endpoint: speed of sound (m/s)
Give bare numbers, in m/s.

Record excerpt, results attached:
entry-smiles	speed of sound [m/s]
Cc1ccccc1	1371.4
CCCCCCC	1289.3
CO	1241
CCCCCC	1252.1
CCO	1284.9
CCCO	1335.5
O	1646.1

Moving on to the next compound.
Which speed of sound value belongs to "CCCCCCCC" ?
1318

---

details: 283.15 K; 95100 kPa; Liquid; Frequency=1.5 MHz; Single path-length method
Give speed of sound for every item shown.
Answers are plain numbers, in m/s.

Record excerpt, results attached:
molecule	speed of sound (m/s)
CCCCCCCC [octane]	1670.7
CCCO [propan-1-ol]	1645.7

Please give speed of sound, item by item, for the list that follows.
1. CCCCCCC [heptane]
2. O [water]
3. CCO [ethanol]
4. CCCCCC [hexane]
5. Cc1ccccc1 [toluene]

1646.4
1608.7
1596.1
1622.6
1714.5

Which speed of sound value belongs to CO [methanol] ?
1536
